The following compounds are listed with their measured %Inh values.
test system: RSK1(Kin.Dom.1-N-terminal); construct: gene RPS6KA1; conditions: concentration: 1 μM, replicates: in singlicate; n = 1;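 further: KINOMEscan kinase panel screen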
Value expressed in %; do not type the unit.

COc1ccc(Nc2nccc(N3CCC(NC(=O)C(C)c4ccc(Cl)cc4)C3)n2)cc1 (centres unmarked)	31
CS(=O)(=O)Cc1ccc(Nc2nccc(-c3c(-c4cccc(NC(=O)C5CCCCC5)c4)nn4ncccc34)n2)cc1	11
O=C(Nc1n[nH]c2nc(-c3cccs3)c(Br)cc12)C1CC1	14
O=C1NC(=O)C(c2ccc(Cl)cc2)=C1Nc1cccc(Cl)c1	12
Cc1ccc(NC(=O)Nc2ccccc2)cc1-c1ccc(C(=O)Nc2ccncc2)cc1	15

Exercise: State its %Inh for this compound: O=c1cc(N2CCOCC2)nc2n(Cc3cccc(Cl)c3Cl)c3ccccc3n12
Key: 31

Exercise: State its %Inh for this compound: CS(=O)(=O)CCNCc1nc(-c2ccc3ncnc(Nc4ccc5c(cnn5Cc5ccccc5)c4)c3c2)cs1.Cl.Cl
Key: 8

Exercise: State its %Inh for this compound: O=c1cc(N2CCOCC2)nc2n(Cc3ccccc3F)ccn12
Key: 5

###

tested on: FYN; conditions: concentration: 1 μM, replicates: in singlicate; n = 1
assayReadout: %Inh (%)
Value expressed in %; do not type the unit.

Fc1ccc(-c2nc[nH]c2-c2ccncc2)cc1 [SB-217360]	0
CS(=O)(=O)Cc1ccc(Nc2nccc(-c3c(-c4cccc(NC(=O)C5CCCCC5)c4)nn4ncccc34)n2)cc1 [GSK350559]	1
COc1ccc(CSc2nnc(-c3ccc4ncsc4c3)o2)cc1C(F)(F)F	0

Exercise: State its %Inh for this compound: O=C1NC(=O)C(c2ccc(Cl)cc2)=C1Nc1cccc(Cl)c1 [SB-317651]
Key: 0

###

test system: STK36; conditions: concentration: 1 μM, replicates: in singlicate; n = 1
assayReadout: %Inh (%)
Value expressed in %; do not type the unit.

See these solved cases before continuing.
O=C(Nc1n[nH]c2cc(-c3ccsc3)ccc12)C1CC1	2
Cn1cncc1-c1cc2c(Nc3ccc(OCc4ccccc4)cc3)ncnc2cn1	0
Fc1ccc(-c2nc3n(c2-c2ccncc2)CCS3)cc1	7

Exercise: State its %Inh for this compound: Cc1cccc2c(-c3ccncn3)c(-c3ccc(F)cc3)nn12
Key: 0

Exercise: State its %Inh for this compound: COC(=O)c1cccc(NC(=O)NC2CCN(c3ccnc(Nc4ccc(OC)cc4)n3)C2)c1 (centres unmarked)
Key: 0

Exercise: State its %Inh for this compound: CNc1nc(-c2ccc3c(N)n[nH]c3c2)cc(N2C[C@@H](C(=O)Nc3ccccc3)CC[C@H]2C)n1
Key: 0

Exercise: State its %Inh for this compound: CN1c2ccc(-c3ccc(C(N)=O)cc3)cc2-c2[nH]ncc2S1(=O)=O
Key: 0

Exercise: State its %Inh for this compound: COc1cccc(CNC(=O)NC2CCN(c3ccnc(Nc4ccc(F)cc4)n3)C2)c1 (centres unmarked)
Key: 0

Exercise: State its %Inh for this compound: CS(=O)(=O)CCNCc1nc(-c2ccc3ncnc(Nc4ccc(OCc5ccccc5)c(Cl)c4)c3c2)cs1.Cl
Key: 0

Exercise: State its %Inh for this compound: Cl.Cl.Cl.N#Cc1ccc(CCNc2nccc(-c3cccc(CN4CCNCC4)c3)n2)cc1
Key: 0

Exercise: State its %Inh for this compound: O=C1NC(=O)C(c2ccc(Cl)cc2)=C1Nc1ccc(O)cc1
Key: 11

Exercise: State its %Inh for this compound: Cn1cncc1C(=O)NC1CCN(c2ccnc(Nc3ccc(F)cc3)n2)C1 (centres unmarked)
Key: 0

Exercise: State its %Inh for this compound: Nc1ncnc2occ(-c3ccc4c(c3)CCN4C(=O)Cc3cc(F)ccc3F)c12
Key: 0

Exercise: State its %Inh for this compound: COc1ccc(CSc2nnc(-c3ccc4c(c3)CCO4)o2)cc1
Key: 0

Exercise: State its %Inh for this compound: Cn1cnc2c(N)ncnc21
Key: 0

Exercise: State its %Inh for this compound: COC(=O)C(Cc1ccccc1)NC(=O)NC1CCN(c2ccnc(Nc3ccc(F)cc3)n2)C1 (centres unmarked)
Key: 31

Exercise: State its %Inh for this compound: COc1nccc(-c2c(-c3ccc(F)cc3)ncn2CCCN2CCOCC2)n1
Key: 0

Exercise: State its %Inh for this compound: Cc1ccccc1-c1cc(-c2c[nH]nc2-c2ccccn2)ccn1
Key: 0

Exercise: State its %Inh for this compound: Cc1ccc(NC(=O)c2ccc(Cl)cc2)cc1-c1ccc(C(=O)Nc2ccncc2)cc1
Key: 0

Exercise: State its %Inh for this compound: NS(=O)(=O)c1cccc(N/C=C2\C(=O)Nc3ccc(S(=O)(=O)Cc4c(Cl)cccc4Cl)cc32)c1
Key: 0
